Test system: Pseudomonas fluorescens
Assay: Antimicrobial activity against Pseudomonas fluorescens after 18 hrs by broth microdilution method
Type: functional
Label key: yes (1) means MIC under 30 µg/mL; no (0) means MIC of 30 µg/mL or more.

## Input Find out if reported MIC for CCCC1=CC2=C(CO1)C(=O)[C@](C)(OC(=O)c1c(C)cc(O)cc1OC)[C@H](O)C2 is less than 30 µg/mL
## Output no (0)

## Input Find out if reported MIC for C/C=C/C1=CC2=C(CO1)C(=O)[C@](C)(O)[C@H](OC(=O)c1c(C)cc(O)cc1O)C2 is less than 30 µg/mL
## Output yes (1)

## Input Find out if reported MIC for CC1(C)S[C@@H]2[C@H](NC(=O)[C@H](N)c3ccccc3)C(=O)N2[C@H]1C(=O)O is less than 30 µg/mL
## Output yes (1)

## Input Find out if reported MIC for C/C=C/C1=CC2=C(CO1)C(=O)[C@](C)(O)[C@H](OC(=O)c1c(C)cc(O)c(O)c1OC)C2 is less than 30 µg/mL
## Output no (0)

## Input Find out if reported MIC for CCCC1=CC2=C(CO1)C(=O)[C@](C)(OC(=O)c1c(C)cc(O)c(O)c1OC)[C@H](O)C2 is less than 30 µg/mL
## Output no (0)

Others:
## Input Find out if reported MIC for C/C=C/C1=CC2=C(CO1)C(=O)[C@](C)(OC(=O)c1c(C)cc(O)c(O)c1OC)[C@H](O)C2 is less than 30 µg/mL
## Output no (0)

## Input Find out if reported MIC for CCCC1=CC2=C(CO1)C(=O)[C@](C)(O)[C@H](OC(=O)c1c(C)cc(O)c(O)c1OC)C2 is less than 30 µg/mL
## Output no (0)

---

Documented IC50 across a set of molecules
Test system: SW1990
Assay: Cytotoxicity against human SW1990 cells
Format: functional, cell-based
Express your answer in µM, writing the number without its unit.

Noted for O=c1[nH]cc(F)c(=O)[nH]1 : its IC50 reads 120

Noted for C/C=C/C1=CC2=C(CO1)C(=O)[C@](C)(O)[C@H](OC(=O)c1c(C)cc(O)c(O)c1OC)C2 : its IC50 reads 26

Noted for C/C=C/C1=CC2=C(CO1)C(=O)[C@](C)(O)[C@H](OC(=O)c1c(C)cc(O)cc1O)C2 : its IC50 reads 51

Others:
Noted for CCCC1=CC2=C(CO1)C(=O)[C@](C)(O)[C@H](OC(=O)c1c(C)cc(O)c(O)c1OC)C2 : its IC50 reads 53
